Tested on: K-562 leukemia
protocol-text: NCI tumour cell line growth inhibition, 48 h; in the data active = GI50 below about 0.43 µM; inactive = the rest
Returns: one label drawn from TRUE for active, FALSE for inactive

Record excerpt, results attached:
>  <line-notation>
O=c1ccccc(-c2ccc(Br)cc2)c1O

>  <assigned-label>
FALSE

$$$$
>  <line-notation>
CC(C)Oc1ccc(-c2nn([C@@H](C)c3oc4ccc(F)cc4c(=O)c3-c3cccc(F)c3)c3ncnc(N)c23)cc1F

>  <assigned-label>
FALSE

$$$$
>  <line-notation>
COc1ccc2c(c1OC)-c1c(c3ccc([N+](=O)[O-])cc3c(=O)n1CCCN)C2=O

>  <assigned-label>
FALSE

$$$$
>  <line-notation>
Nc1nc2cc(O)ccc2n2cc3c(F)cccc3c12

>  <assigned-label>
FALSE

$$$$

In the following, a different compound is considered.
**Q:** Could you please tell me the result logged for COc1cc2cnc3c(c2c(OC)c1OC)Cc1cc2c(cc1-3)OCO2 in this assay?
**A:** TRUE

Measured values drawn from PubChem BioAssay (NCI) for this set.
